Activity: recorded values
method: Activation of AMPK assessed as phosphorylation of T172 at 10 uM by Western blotting relative to control
recorded_endpoint: Activity

• COc1ccc2c(c1O)OC(C)(C)c1c-2ccc2c1C(=O)N(c1ccc(-c3ccccc3)cc1)C2=O = 160%
• COc1ccc2c(c1O)OC(C)(C)c1c-2ccc2c1C(=O)N(c1ccc(Cc3ccccc3)cc1)C2=O = 169%
• COc1ccc2c(c1O)OC(C)(C)c1c-2ccc2c1C(=O)N(c1cccc(-c3ccccc3)c1)C2=O = 175%
• COc1ccc2c(c1O)OC(C)(C)c1c-2ccc2c1C(=O)N(c1ccc(-c3nc4ccccc4o3)cc1)C2=O = 92%

====

method: Activation of ACC phosphorylation at S79 at 10 uM by Western blotting relative to control
recorded_endpoint: Activity (%)

• COc1ccc2c(c1O)OC(C)(C)c1c-2ccc2c1C(=O)N(c1cccc(-c3ccccc3)c1)C2=O = 201
• COc1ccc2c(c1O)OC(C)(C)c1c-2ccc2c1C(=O)N(c1ccc(Cc3ccccc3)cc1)C2=O = 129
• COc1ccc2c(c1O)OC(C)(C)c1c-2ccc2c1C(=O)N(c1ccc3c(c1)-c1ccccc1C3=O)C2=O = 154
• COc1ccc2c(c1O)OC(C)(C)c1c-2ccc2c1C(=O)N(c1ccc(-c3ccccc3)cc1)C2=O = 114
• COc1ccc2c(c1O)OC(C)(C)c1c-2ccc2c1C(=O)N(c1ccc(C(=O)c3ccccc3)cc1)C2=O = 295
• COc1ccc2c(c1O)OC(C)(C)c1c-2ccc2c1C(=O)N(C)C2=O = 145
• CC1(C)Oc2cc(F)ccc2-c2ccc3c(c21)C(=O)N(c1ccc(C(=O)c2ccccc2)cc1)C3=O = 156
• CC1(C)Oc2ccccc2-c2ccc3c(c21)C(=O)N(c1ccc(C(=O)c2ccccc2)cc1)C3=O = 92
• COc1ccc2c(c1O)OC(C)(C)c1c-2ccc2c1C(=O)N(c1ccc(-c3nc4ccccc4o3)cc1)C2=O = 91
• COc1ccc2c(c1O)OC(C)(C)c1c-2ccc2c1C(=O)N(c1ccc(C(C)=O)cc1)C2=O = 384
• COc1ccc2c(c1O)OC1(CCCC1)c1c-2ccc2c1C(=O)N(c1ccc(C(=O)c3ccccc3)cc1)C2=O = 51
• COc1ccc2c(c1O)OC(C)(C)c1c-2ccc2c1C(=O)NC2=O = 123
• COc1ccc2c(c1O)OC(C)(C)c1c-2ccc2c1C(=O)N(Cc1ccccc1)C2=O = 194
• COc1ccc2c(c1O)OC(C)(C)c1c-2ccc2c1C(=O)N(c1ccccc1)C2=O = 254
• COc1ccc2c(c1)OC(C)(C)c1c-2ccc2c1C(=O)N(c1ccc(C(=O)c3ccccc3)cc1)C2=O = 154

====

method: Activation of AMPK assessed as phosphorylation of T172 at 10 uM by Western blotting relative to control
Please enter Fulfilled where Activity is greater than or equal to 200%, and Not fulfilled where it is lower.

- COc1ccc2c(c1O)OC(C)(C)c1c-2ccc2c1C(=O)N(c1ccc(C(C)=O)cc1)C2=O: Fulfilled
- COc1ccc2c(c1O)OC(C)(C)c1c-2ccc2c1C(=O)N(c1ccccc1)C2=O: Fulfilled
- COc1ccc2c(c1)OC(C)(C)c1c-2ccc2c1C(=O)N(c1ccc(C(=O)c3ccccc3)cc1)C2=O: Not fulfilled
- CC1(C)Oc2cc(F)ccc2-c2ccc3c(c21)C(=O)N(c1ccc(C(=O)c2ccccc2)cc1)C3=O: Not fulfilled
- COc1ccc2c(c1O)OC(C)(C)c1c-2ccc2c1C(=O)N(Cc1ccccc1)C2=O: Not fulfilled

Numbers sourced from ChEMBL document CHEMBL1268912.
